assay: NCI Yeast Anticancer Drug Screen. Data for the sgs1 mgt1 strain (AID 161);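 also: 0% = growth of cultures given vehicle only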; settings: S. cerevisiae sgs1 mgt1 strain, at 50.0 µM, hits give high values
About 79,000 compounds went through this panel and 15% of them were active in at least one assay; those are over-represented in the sample as a whole.
Label true (1) when growth inhibition is at or above -10%; anything below gets false (0).

INSERT INTO measurements (molecule, category_label) VALUES
  ('O=C(N/N=C\c1cccc2c([N+](=O)[O-])cccc12)Nc1ccccc1', 'false (0)'),
  ('O=C(O)C1CC(Cl)C(O)C(Cl)C1 (stereo unspecified)', 'true (1)'),
  ('CCCC1OCC(C)(CC)CO1 (stereo unspecified)', 'true (1)'),
  ('COC(=O)c1sc(C(=O)OC)c2c1CS(=O)C2', 'true (1)'),
  ('CCC(O)(c1ccc(OC)cc1)C(O)(CC)c1ccc(OC)cc1 (stereo unspecified)', 'true (1)'),
  ('CC1OC(n2cc(Cl)c(=O)[nH]c2=O)C=C(OC(=O)c2ccccc2)C1=O (stereo unspecified)', 'false (0)'),
  ('O=C1NC(c2cccc3ccccc23)Nc2ccccc21 (stereo unspecified)', 'true (1)'),
  ('CC(=O)c1cc([N+](=O)[O-])c(O)c([N+](=O)[O-])c1O', 'false (0)'),
  ('Cc1ccc(S(=O)(=O)OCC2C(COS(=O)(=O)c3ccc(C)cc3)C3CCC2C2C3C3C2C2(C)C(=O)C3(C)C(c3ccccc3)=C2c2ccccc2)cc1 (stereo unspecified)', 'true (1)'),
  ('CSc1cc(Cl)c(C)cc1S(=O)(=O)n1cc[nH]c1=O', 'true (1)'),
  ('CC/C(CC(C)CC)=N\O (stereo unspecified)', 'false (0)');

====

assay: NCI Yeast Anticancer Drug Screen. Data for the bub3 strain (AID 167); details: S. cerevisiae bub3 mutant strain, at 50.0 µM, hits give high values
Compounds without any hit were thinned out: in the full panel of roughly 79,000, 15% have a hit.
Label condition met when growth inhibition is at or above 10%; anything below gets condition not met.

INSERT INTO measurements (compound, category_label) VALUES
  ('CCCSS[C@H]1NC(=O)[C@H]1NC(=O)COc1ccccc1', 'condition met'),
  ('C[n+]1cc(-c2ccccc2)cc(-c2ccccc2)c1', 'condition not met'),
  ('Nc1cccc2c1C(=O)c1cccc(Nc3ccc4c(c3)C(=O)c3ccccc3C4=O)c1C2=O', 'condition not met'),
  ('CCOC(=O)CCCCN(CC)CCCCC(=O)OCC', 'condition met'),
  ('CCCCNc1ccc([N+](=O)[O-])cc1[N+](=O)[O-]', 'condition met'),
  ('C[N+]12C=CC=C1C(N1CCCC1)c1sc(-c3ccc(Cl)cc3)cc12 (stereo not given)', 'condition not met'),
  ('CC12CC(c3ccccc3)C(C)(C(c3ccccc3)=C1c1ccccc1)C2(O)c1ccccc1 (stereo not given)', 'condition not met'),
  ('CCOC(=O)/C(C(C)=O)=C1\C(=O)c2ccccc2-c2ccccc21', 'condition met'),
  ('CN(CC(=O)NC(=O)c1ccccc1)c1ccccc1', 'condition met'),
  ('Oc1c(/N=N/C(=S)NCCCN2CCN(CCCNC(=S)/N=N/c3[nH]c4ccccc4c3O)CC2)[nH]c2ccccc12', 'condition not met');

====

test: NCI Yeast Anticancer Drug Screen. Data for the sgs1 mgt1 strain (AID 161);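 also: 0% = growth of cultures given vehicle only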; settings: S. cerevisiae sgs1 mgt1 strain, at 50.0 µM, hits give high values
The panel holds about 79,000 compounds, 15% with a hit somewhere; the sample as a whole holds those more often.
property name: growth inhibition (%)

INSERT INTO results (molecule, reading) VALUES
  ('CCc1cccc(C)c1NC(=O)C(=O)Cc1nc2ccccc2s1', -9.8),
  ('Cc1ccc(CCOS(=O)(=O)c2ccc(C)cc2)cc1', -1.3),
  ('CCOC(=O)C(/C(=N/NC(=O)OC)C(=O)Nc1ccc(C(C)=O)cc1)c1cnc2ccccc2n1 (stereo unspecified)', -26.6),
  ('CCO/C=N/c1oc(-c2ccccc2)nc1C#N', -4.85),
  ('COC(=O)/C(C#N)=C(C)/C=C/c1ccc(OC)cc1', 8),
  ('ClCc1ccc(-c2ccccc2)cc1', 19.7);
